# target_of_assay: human MDM2 protein (amino acids 2-188) (Homo sapiens)
# Construct: human MDM2 protein (amino acids 2-188); made in house
# Sequence (Q00987 2-188): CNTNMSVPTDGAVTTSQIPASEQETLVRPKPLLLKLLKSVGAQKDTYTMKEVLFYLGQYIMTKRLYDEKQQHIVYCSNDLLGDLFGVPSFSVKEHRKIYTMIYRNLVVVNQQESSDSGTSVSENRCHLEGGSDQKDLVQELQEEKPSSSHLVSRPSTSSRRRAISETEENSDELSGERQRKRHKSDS
# assay_details: p53-MDM2 TR-FRET assay (p53-MDM2 Assay 1)
# Type: binding
# condition_info: 1.25 nM MDM2-biotinylated, 10 nM Cy5-p53 peptide; read-out: IC50 (μM) of p53-Hdm2 inhibition (TR-FRET) Assay 1
endpoint_label: IC50 (µM)

Please review the following examples before continuing.
>  <compound>
COc1cc2c(cc1OC(C)C)[C@H](c1ccc(Cl)cc1)N(c1ccc(C3(O)CCC3)cc1)C(=O)C2 [Example 51]

>  <target_of_assay>
human MDM2 protein (amino acids 2-188) (Homo sapiens)

>  <IC50 [µM]>
0.0731

$$$$
>  <compound>
COc1cc2c(cc1OC(C)C)[C@H](c1ccc(Cl)cc1)N(c1ccc([C@@](C)(O)C34CC5CC(CC(C5)C3)C4)cc1)C(=O)C2 (single isomer, unassigned) [Example 142]

>  <target_of_assay>
human MDM2 protein (amino acids 2-188) (Homo sapiens)

>  <IC50 [µM]>
0.0054

$$$$
>  <compound>
COc1cc2c(cc1OC(C)C)[C@H](c1ccc(Cl)cc1)N(c1ccc(C3(O)CN(C(=O)N(C)C)C3)cc1)C(=O)C2 [Example 59]

>  <target_of_assay>
human MDM2 protein (amino acids 2-188) (Homo sapiens)

>  <IC50 [µM]>
0.167

$$$$
>  <compound>
CNC(=O)N1CC(C(C)(O)c2ccc(N3C(=O)Cc4cc(OC)c(OC(C)C)cc4[C@@H]3c3ccc(Cl)cc3)cc2)C1 (stereo partly drawn) [Example 67]

>  <target_of_assay>
human MDM2 protein (amino acids 2-188) (Homo sapiens)

>  <IC50 [µM]>
0.0152

$$$$

[P] CCN1CCC(C(C)(O)c2ccc(N3C(=O)Cc4cc(OC)c(OC(C)C)cc4[C@@H]3c3ccc(Cl)cc3)cc2)CC1 (stereo partly drawn) [Example 85]
[Q] COc1cc2c(cc1OC(C)C)[C@H](c1ccc(Cl)cc1)N(c1ccc(C(C)(O)C3CC4CCCC(C3)N4CC(F)(F)F)cc1)C(=O)C2 (stereo partly drawn) [Example 118]
Hi, I'm comparing two records. Which one has the lower IC50, P or Q ? Respond with the label that goes with your answer.
P

Values compiled from patent US8859535B2.
